Molecular target: T1, human calcitonin receptor (human, UniProt P30988 25-474)
T1 sequence (looked up): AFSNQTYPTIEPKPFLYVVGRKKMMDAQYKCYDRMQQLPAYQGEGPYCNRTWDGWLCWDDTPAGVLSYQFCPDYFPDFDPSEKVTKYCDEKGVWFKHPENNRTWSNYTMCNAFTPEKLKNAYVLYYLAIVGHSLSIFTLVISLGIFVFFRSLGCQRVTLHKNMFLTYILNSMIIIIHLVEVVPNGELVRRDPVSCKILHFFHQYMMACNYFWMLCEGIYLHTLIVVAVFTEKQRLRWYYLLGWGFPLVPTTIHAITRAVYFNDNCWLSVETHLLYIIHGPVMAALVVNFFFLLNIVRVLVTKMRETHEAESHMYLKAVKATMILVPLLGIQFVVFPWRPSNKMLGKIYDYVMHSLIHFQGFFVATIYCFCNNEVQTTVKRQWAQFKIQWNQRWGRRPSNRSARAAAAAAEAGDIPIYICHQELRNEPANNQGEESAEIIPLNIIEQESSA
Assay: cell-based or functional assay
Starred links: 1 amine or outer side, 2 acyl side, 3 side chain; linkers in the order of their positions; H or OH if unused. Positions of bridges follow the written chain, without caps; N, C: chain ends. Non-standard residues stand in square brackets, D forms with d. Groups on a side chain read outwards from the residue. Primed or numbered codes have the meaning given here. No end group written: not given here. *: point of attachment. dpeg″ = —[CO(CH2)O(CH2)2O(CH2)NH]— spacer unit, O=C(COCCOCN[*:1])[*:2]; C20 diacid = O=C(O)CCCCCCCCCCCCCCCCCCC(=O)*; C18 diacid = O=C(O)CCCCCCCCCCCCCCCCC(=O)*; γGlu = O=C(O)[C@H](CCC(=O)[*:2])N[*:1]
# pEC50 (cAMP accumulation), 4% HSA annotations
Answer format reminder: number followed by unit.

Worked examples, 4 binders total:
K([γGlu-γGlu-dpeg″-dpeg″-γGlu-C20 diacid])CNTSTCATQRLANELHKSSNNFGPILPPTKVGSETY-NH2 (disulfide 2-7) [Compound A112]	7.5 pEC50
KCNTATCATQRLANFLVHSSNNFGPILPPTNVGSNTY-NH2 (disulfide 2-7; ends not checked) [Pramlintide]	11.1 pEC50
K([dpeg″-dpeg″-γGlu-C18 diacid])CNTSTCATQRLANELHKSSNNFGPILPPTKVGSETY-NH2 (disulfide 2-7) [Compound A113]	8.1 pEC50
SCNTSTCATQRLANEKHKSSNNFGPILPPTKVGSETY (L-Lys 16 acylated: K*(γGlu-dpeg-dpeg-(γGlu)4-CO(CH2)14CH3); disulfide bridge Cys2-Cys7; C-terminal amide) [Compound A5]	7.8 pEC50

Let's switch to this binder now.
Recorded pEC50 (cAMP accumulation), 4% HSA for SCNTSTCATQRLAN[dK]([γGlu-γGlu-dpeg″-γGlu-C20 diacid])LHKSSNNFGPILPPTKVGSETY-NH2 (disulfide 2-7) [Compound A100] , please? 7.1 pEC50
